test: soluble on expression in E. coli; label from the status in PepcDB or PDB records
READOUT: soluble on expression in E. coli

These solved cases illustrate the format of a correct answer.
MASVELSADVPISPQDTWDHVSELSELGEWLVIHEGWRSELPDQLGEGVQIVGVARAMGMRNRVTWRVTKWDPPHEVAMTGSGKGGTKYGVTLTVRPTKGGSALGLRLELGGRALFGPLGSAAARAVKGDVEKSLKQFAELYGLEHHHHHH: not soluble
QRNGFCRLPADEGICKALIPRFYFNTETGKCTMFSYGGCGGNENNFETIEECQKACGAPERVNDFESADFKTGCEPAADSGSCAGQLERWFYNVQSGECETFVYGGCGGNDNNYESEEECELVCKNM: soluble
MGSDKIHHHHHHMTTLNAIFRPFIQPHRYKIAKGGRGSGKSWAIARLLVEIARRGTYRFLCAREFQASMADSVIQLIADTIQREGYLKEFEIQKAYIRHLAATDSLFMFYGIKNNVTKIKSLEGIDIAWVEEAEAVTKESWDILIPTIRKPGSEIWVSFNSKNILDDTYQRFVVNPPDDICLLTVHYTDNPHFPEVLRLEMEECKCKDYDLYLHIWEGQPVADSDLAIIKPLWIAAAVDAHMTLGFDAVGEKRLGFDVADEGKTATPCALCRAQSC: not soluble
MGSDKIHHHHHHENLYFQGMNTIDIAKSYITAIQTGDHATLGSIISPDVIWHQPGNHQFSGTHRGMAVVGPMLGKMMEVSNGTFAISRADDYMASGDWVAITLEFSGQANGVTLKQAGVDLLRIEDGKIVEVRLFSADQTQEDAFWGR: soluble
MRGYFIVLEGIDGSGKTTQAKLLAEWFEDKGYEVLLTKEPTDSELGKLIRRIILEESVIDGSKISYEAEALLFAADRAEHVKKIILPALSEGKVVICDRYFYSSLAYQWARGLDLNWLIQVNSFAPRPDLAILLDLPVKESLRRIKLRGTLTEFDKIVELQRKVRHNYLKLAEMFPEMRIVNALSSIEDIHSDIVALVKHELLGL: soluble

Give the measured soluble on expression in E. coli of `MSLKYLLLGMMLLGSFAASAGMDPQQLKQTIEQRLGVQVYLVDETPMPGLYMLGTAQGLLYTDARGDYVLQGTMLDLAHDMKNLTMLGLRQQRQLALAQIGERRVQLRAEQERHRVTLFTDLACSSCRTTLAELPVLQARGVSVQLLPVLGTFADLAEAQARWCDPRQFDALDLSDRLPETGCNEILAHHIGLSQWLGIKALPSWVLPNGDLVRGYQSPEQLLKILDHINAPANPSSEGHHHHHH` . soluble

For `MAHHHHHHMGDNIEKRYSLALYNVGKKNKKINEITSDILFIKNNFLKDKSFLNFLHTPNIESREKLNFLKTECKKYNNNFSPITSNFLESLFDSKRIKFLQKIIEEFELLLMKERKEIKCVVYTAKEINNNEKQKIQESILFKLKNELKPLIEYKIDKSILGGLVLQIGNQVFDFSAKYKIEKIRSTLS` then? not soluble

====

experiment: soluble on expression in E. coli; label from the status in PepcDB or PDB records
READOUT: soluble on expression in E. coli

MSLCVFLTSEVNMGLFNFVKDAGEKLWDAVTANHDKDDQAKKVQEHLNKTGIPDTDKVNVQIADGKATVTGDGLSQEAKEKILVAVGNIAGISSVDDQVKTTTPAAESQFYTVKSGDTLSAISKQVYGNANLYNKIFEANKPMLKSPEKIYPGQVLRIPEEGHHHHHH: not soluble
QVQSVEVMRDSYGVPHVFADSHYGLYYGYGYAVAQDRLFQMDMARRSFVGTTAAVLGPGEQDAYVKYDMQVRQNFTPASIQRQIAALSKDERDIFRGYADGYNAYLEQVRRRPELLPKEYVDFDFQPEPLTDFDVVMIWVGSMANRFSDTNLEVTALAMRQSLEKQHGPERGRALFDELLWINDTTAPTTVPAPAA: soluble
MSERRIDVNRSNYSVIDNEFGNMRDRFEQEMRRVEEEMKRLRSEFEGYRPNGGPPAAISNQPYNAYSNTSSHHETSNRTGGFGSPLPPPSFHGPSDLMAHRPTYDPYLDNLKSPLIKDESDGKTLRLRFDVANYKPEEVTVKTIDNRLLVHAKHEEKTPQRTVFREYNQEFLLPRGTNPEQISSTLSTDGVLTVEAPLPQLAIQQ: not soluble
MAHHHHHHMRSLPNIIVTGVPGVGKTTLCEELVEVINKELQEGQQAEPANQMKHLNLSKVIKEERLYEEFDDQLDATIYSNDMVNEKMEKLKLENGGYIIDFHDVDFLEQKELIDHIFLLTTSTNKLYERLEKRNYAKEKIKNNIECEIFQVIKEDILTFYNDPSIFDELGNNDMEQYESNLQLIKGWVLSWAKSGEALPR: soluble
